System: PPARg DBDmut IVT, anti-PPARg (DBD mutation: PPARg1 K132A/R137A, NR concentration 270 nM)
Experiment: PBM binding z-score (relative to random genomic background probes); higher = stronger binding; sequences stand for … in GC…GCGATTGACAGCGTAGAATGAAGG
Measured PBM binding z-score by item
Output spec: single numeric token, no unit.

State its PBM binding z-score on PPARg DBDmut IVT, anti-PPARg (DBD mutation: PPARg1 K132A/R137A, NR concentration 270 nM): `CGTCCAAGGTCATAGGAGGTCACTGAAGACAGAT`
1.12

Lab note: need PBM binding z-score for `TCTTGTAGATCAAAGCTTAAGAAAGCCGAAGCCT` on PPARg DBDmut IVT, anti-PPARg (DBD mutation: PPARg1 K132A/R137A, NR concentration 270 nM), anyone have it?
-0.413

Param readout= PBM binding z-score; system= PPARg DBDmut IVT, anti-PPARg (DBD mutation: PPARg1 K132A/R137A, NR concentration 270 nM); entry= `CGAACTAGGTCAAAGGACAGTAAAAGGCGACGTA` ; returns value.
0.249

Field: PBM binding z-score (PPARg DBDmut IVT, anti-PPARg (DBD mutation: PPARg1 K132A/R137A, NR concentration 270 nM)). Entry: `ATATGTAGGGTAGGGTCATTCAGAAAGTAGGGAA`
4.11

Tell me reported PBM binding z-score for `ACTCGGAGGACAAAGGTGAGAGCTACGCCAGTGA` , tested with PPARg DBDmut IVT, anti-PPARg (DBD mutation: PPARg1 K132A/R137A, NR concentration 270 nM).
-0.86

Reported PBM binding z-score for PPARg DBDmut IVT, anti-PPARg (DBD mutation: PPARg1 K132A/R137A, NR concentration 270 nM), given `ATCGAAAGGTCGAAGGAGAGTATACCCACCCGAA` ?
0.145

* * *

System: VDR:RXRa (NR concentration 270 nM, RXRa partner concentration 90 nM)
Test: PBM binding z-score (relative to random genomic background probes); higher = stronger binding; sequences stand for … in GC…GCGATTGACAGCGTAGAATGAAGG
PBM binding z-score: recorded values

Below: 5 sequences and their reported PBM binding z-score.
>>> endpoint_result("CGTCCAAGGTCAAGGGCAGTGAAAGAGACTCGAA")
3.68
>>> endpoint_result("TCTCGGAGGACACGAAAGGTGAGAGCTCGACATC")
0.263
>>> endpoint_result("ATATGGAGGTTAGGGTCATTCAGAAAGTAGGGAA")
4.64
>>> endpoint_result("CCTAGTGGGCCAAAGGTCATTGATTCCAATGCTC")
4.68
>>> endpoint_result("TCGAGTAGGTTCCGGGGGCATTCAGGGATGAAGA")
2.54

Next:
Fill in the blank: the reported PBM binding z-score of `TAGCCTAGGTCATAGGCCAGTATACCACGCGAAC` is ____.
1.74

* * *

Test system: VDR:RXRa (NR concentration 270 nM, RXRa partner concentration 90 nM)
Experiment: PBM binding z-score (relative to random genomic background probes); higher = stronger binding; sequences stand for … in GC…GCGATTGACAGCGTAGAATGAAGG
Measured PBM binding z-score, listed per entry.
Give only the figure.

Below, each entry is followed by its recorded PBM binding z-score result.
>>> endpoint_result("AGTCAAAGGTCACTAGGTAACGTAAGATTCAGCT")
5.23
>>> endpoint_result("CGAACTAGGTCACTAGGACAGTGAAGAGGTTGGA")
1.18
>>> endpoint_result("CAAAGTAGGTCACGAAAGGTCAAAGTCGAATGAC")
6.82
>>> endpoint_result("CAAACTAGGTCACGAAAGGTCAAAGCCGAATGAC")
6.5
>>> endpoint_result("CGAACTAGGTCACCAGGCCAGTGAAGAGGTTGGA")
1.71

Now, please, on to the next sequence.
Dear colleague, I am looking for the recorded PBM binding z-score of the following sequence: `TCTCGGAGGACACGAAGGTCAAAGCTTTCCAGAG`
3.87
